src = PubChem BioAssay

# protocol_notes: JC-1 mitochondrial signal, unstimulated myeloma cells – cell-based, JC-1 fluorescence, RPMI8226, 24 h, 100 nL compound, profiling panel (AID 1169); further: test concentration not given here
# stated_conditions: JC-1 mitochondrial potential fluorescence, higher = more signal
Consider the following molecules and their measured z-score readings.

molecule	z-score
COc1ccc([Si](C)(C)[C@H]2[C@H](CCO)O[C@@]3(C(=O)N(Cc4ccccc4)c4ccc(N5C(=O)COc6ccccc65)cc43)[C@@H]2C)cc1	-0.855
COCCOC(=O)N1C(=O)[C@@]2(c3cc(C#CC4(O)CCCCCC4)ccc31)[C@H](c1ccc(O)cc1)N1[C@H](c3ccccc3)[C@H](c3ccccc3)OC(=O)[C@H]1[C@@H]2C(=O)N1CCc2cc(OC)c(OC)cc2C1	0.83
Cc1c(NC(=O)/C(C#N)=C/C=C/c2ccccc2)c(=O)n(-c2ccccc2)n1C	0.305
Cc1ccc(C(C)CC(O)C2C=CC3C(=O)NC(=O)C3N2Nc2ccccn2)o1 (centres undefined)	-0.263
